Values were extracted from PubChem BioAssay AID720728.

- protocolNotes: mtPTP inhibition measured by calcium retention, dose response, biochemical, dry powder samples, uHTS hits, isolated mitochondria (AID 720728)
- setupConditions: calcium retention capacity
The source made the active and inactive calls. No rule for the calls is given here.
reportedEndpoint: CRC/CRC0 ratio at 50 uM (fold over control, higher = inhibition)

QUERY: Returns the measured CRC/CRC0 ratio at 50 uM (fold over control, higher = inhibition) for the input compound. Input: COc1cc(NC(=O)c2cc(-c3cccc(O)c3)on2)cc(OC)c1OC
RESULT: 1.93 fold (active)

QUERY: Returns the measured CRC/CRC0 ratio at 50 uM (fold over control, higher = inhibition) for the input compound. Input: COCCCNCCCOc1ccc(Cl)cc1C(C)(C)C
RESULT: 2.13 fold (active)

QUERY: Returns the measured CRC/CRC0 ratio at 50 uM (fold over control, higher = inhibition) for the input compound. Input: Cc1cc(C)c2nc(N(CCCN(C)C)C(=O)C3=COCCO3)sc2c1
RESULT: 1.4 fold (active)

QUERY: Returns the measured CRC/CRC0 ratio at 50 uM (fold over control, higher = inhibition) for the input compound. Input: C=CCNCCOc1ccc(C(C)(C)c2ccccc2)cc1
RESULT: 1.95 fold (active)

QUERY: Returns the measured CRC/CRC0 ratio at 50 uM (fold over control, higher = inhibition) for the input compound. Input: COc1cc(CNCCO)cc(Cl)c1OCc1ccccc1Cl
RESULT: 1.81 fold (active)

QUERY: Returns the measured CRC/CRC0 ratio at 50 uM (fold over control, higher = inhibition) for the input compound. Input: CCN(CC)c1ccc(NC(=O)c2cc(Cl)ccc2OC)cc1
RESULT: 0.622 fold (active)
